# protocolDetails: Pharmacokinetic study in cynomolgus monkeys
# Type: in vivo
# testContext: cynomolgus monkey, plasma, iv, I.V. (1 mg/kg)
Reported C0 by item:
measuredEndpoint: C0 (ng/mL)

- [2H]C([2H])([2H])NC(=O)c1nnc(NC(=O)C2CC2)cc1Nc1cccc(-c2ncn(C)n2)c1OC [control, BMS-986165, reference compound]: 1420
- [2H]C([2H])([2H])CC(=O)c1cnc(Nc2ccc(C(O)(C([2H])([2H])[2H])C([2H])([2H])[2H])c(F)n2)cc1Nc1ncccc1S(C)(=O)=O: 787
- [2H]C([2H])([2H])CC(=O)c1cnc(Nc2cccc(C#N)n2)cc1Nc1cccc(-c2ncn(C([2H])([2H])[2H])n2)c1OC: 667
- [2H]C([2H])([2H])CC(=O)c1cnc(NC(=O)C2CC2)cc1Nc1cccc(-c2ncn(C([2H])([2H])[2H])n2)c1OC: 1290
- [2H]C([2H])([2H])CC(=O)c1cnc(Nc2ccc(C(C)(C)O)c(F)n2)cc1Nc1nccc(-c2ncn(C([2H])([2H])[2H])n2)c1OC: 849
- [2H]C([2H])([2H])CC(=O)c1cnc(NC(=O)C2CC2)cc1Nc1nccc(-c2ncn(C([2H])([2H])[2H])n2)c1OC: 677
